Experiment: Toxicity in […] assessed as maximum tolerated dose administered as once each 4 days for 3 total injection
Format: organism-based, P388
Details: mouse, in vivo, ip
outcome_measure: MTD at 96 h (mg/kg)
Quick note: give the figure in mg/kg, leave out the unit.

Qu. Dear colleague, please send me the reported MTD at 96 h for O=P1(N(CCCl)CCCl)NCCCO1 (stereo not given) [CYCLOPHOSPHAMIDE ANHYDROUS] when you can.
Ans. 100

Qu. # return recorded MTD at 96 h for input `COc1cccc2c1C(=O)c1c(O)c3c(c(O)c1C2=O)C[C@@](O)(C(=O)CO)C[C@@H]3O[C@H]1C[C@H](N)[C@H](O)[C@H](C)O1`
Ans. 2.7

Qu. Tell me its MTD at 96 h given Cl.Cl.O=C1c2c(O)ccc(O)c2C(=O)c2c(NCCNCCO)ccc(NCCNCCO)c21 [MITOXANTRONE HYDROCHLORIDE] as the entry.
Ans. 3.4

Qu. For CN(Cc1cnc2nc(N)nc(N)c2n1)c1ccc(C(=O)N[C@@H](CCC(=O)O)C(=O)O)cc1 [METHOTREXATE] , write its MTD at 96 h.
Ans. 17.5

Qu. Recall and state the measured MTD at 96 h for `O=c1[nH]cc(F)c(=O)[nH]1` .
Ans. 48

---

Tested on: B16
Test: Antitumor activity against mouse B16 cells allografted in BDF1 mouse assessed as increase of median life span at 50 mg/kg, ip on day 1 to 9 measured up to 80 days relative to control
Assay type: functional
Conditions: route intraperitoneal
Record form. Attribute: ILS at 50 mg/kg. Fill in for each entry.
Express it in %; write the number only.

Qu. Quick one: give measured ILS at 50 mg/kg for CCN1CCCC1CNc1ccc(NCC2CCCN2CC)c2c1C(=O)c1c(O)ccc(O)c1C2=O (stereo not given)
Ans. 30

Qu. Please give measured ILS at 50 mg/kg of the following entry: `O=C1c2c(O)ccc(O)c2C(=O)c2c(NCCN3CCCCC3)ccc(NCCN3CCCCC3)c21`
Ans. 0

Qu. Give ILS at 50 mg/kg for the following compound: `O=C1c2ccccc2C(=O)c2c(NCCN(CCO)CCO)ccc(NCCN(CCO)CCO)c21`
Ans. 88

Qu. Supply measured ILS at 50 mg/kg of `CC(C)N(CCNc1ccc(NCCN(C(C)C)C(C)C)c2c1C(=O)c1c(O)ccc(O)c1C2=O)C(C)C` in your reply.
Ans. 0

Qu. Query ILS at 50 mg/kg for `CCN(CC)CCNc1ccc(NCCN(CC)CC)c2c1C(=O)c1c(O)ccc(O)c1C2=O`
Ans. 38

Qu. State its ILS at 50 mg/kg: `CNCCNCCNc1ccc(NCCNCCNC)c2c1C(=O)c1c(O)ccc(O)c1C2=O`
Ans. 122

Qu. Tell me its ILS at 50 mg/kg given `CN(CCNc1ccc(NCCN(C)c2ccccc2)c2c1C(=O)c1c(O)ccc(O)c1C2=O)c1ccccc1` as the entry.
Ans. 0

Qu. Quick one: give measured ILS at 50 mg/kg for `O=C1c2c(O)ccc(O)c2C(=O)c2c(NCCN3CCNCC3)ccc(NCCN3CCNCC3)c21`
Ans. 103

Qu. Output measured ILS at 50 mg/kg for this item: `CN(C)CCCCNc1ccc(NCCCCN(C)C)c2c1C(=O)c1c(O)ccc(O)c1C2=O`
Ans. 0

Qu. Give ILS at 50 mg/kg for `NCCNc1ccc(NCCN)c2c1C(=O)c1ccccc1C2=O`
Ans. 100

---

Test: Therapeutic index, ratio of MTD for mouse P388 cells allografted ip dosed mouse to MED for mouse P388 cells allografted in ip dosed mouse administered as once each 4 days for 3 total injection
Assay type: organism-based
Details: in vivo, read-out: TI
So I've got a bunch of molecules here, and I need their selectivity ratio at 96 h values.
Kindly provide the number alone.

Qu. Recall and state the measured selectivity ratio at 96 h for O=P1(N(CCCl)CCCl)NCCCO1 (centres undefined) [CYCLOPHOSPHAMIDE ANHYDROUS] .
Ans. 8

Qu. Supply recorded selectivity ratio at 96 h for O=c1[nH]cc(F)c(=O)[nH]1 [FLUOROURACIL] here.
Ans. 4

Qu. For the molecule Cl.Cl.O=C1c2c(O)ccc(O)c2C(=O)c2c(NCCNCCO)ccc(NCCNCCO)c21 [MITOXANTRONE HYDROCHLORIDE] , report selectivity ratio at 96 h.
Ans. 148

Qu. Determine from records and report selectivity ratio at 96 h for CN(Cc1cnc2nc(N)nc(N)c2n1)c1ccc(C(=O)N[C@@H](CCC(=O)O)C(=O)O)cc1 [METHOTREXATE]
Ans. 11

---

Consider the following compounds; for each one, report its ILS at 50 mg/kg.
Tested on: P388
Experiment: Antitumor activity against mouse P388 cells allografted in mouse assessed as increase of median life span at 50 mg/kg, ip on day 1, 5 and 9 measured up to 60 days relative to control
Assay type: functional
Settings: route intraperitoneal
Give the quantity in %, number only.

Qu. Quote ILS at 50 mg/kg with test system P388 for `CN(C)CCNc1ccc(NCCN(C)C)c2c1C(=O)c1ccc(O)c(O)c1C2=O`
Ans. 57

Qu. Name the recorded ILS at 50 mg/kg of `CCCNCCNc1ccc(NCCNCCC)c2c1C(=O)c1c(O)ccc(O)c1C2=O` , assay system P388.
Ans. 36

Qu. Report ILS at 50 mg/kg under test system P388 for `O=C1c2c(O)ccc(O)c2C(=O)c2c(NCCCNCCO)ccc(NCCCNCCO)c21` .
Ans. 191

Qu. Name the value of ILS at 50 mg/kg reported for `CN(C)CCNc1ccc(NCCN(C)C)c2c1C(=O)c1c(O)ccc(O)c1C2=O` when tested on P388.
Ans. 122

Qu. State measured ILS at 50 mg/kg of the compound `CN(C)CCCNc1ccc(NCCCN(C)C)c2c1C(=O)c1c(O)ccc(O)c1C2=O` with P388.
Ans. 29

---

Test system: P388
Experiment: Antitumor activity against mouse P388 cells allografted in ip dosed mouse assessed as minimum effective dose administered as single dose
Format: functional
Conditions: read-out: MED
outcome_measure: log10(minimal effective dose) (log10 of the value in mg/kg)
Base-10 log of minimal effective dose, unit mg/kg.

Qu. Please give the documented log10(minimal effective dose) of Cl.Cl.O=C1c2c(O)ccc(O)c2C(=O)c2c(NCCNCCO)ccc(NCCNCCO)c21 [MITOXANTRONE HYDROCHLORIDE]
Ans. -0.82

Qu. Answer with reported log10(minimal effective dose) of `COc1cccc2c1C(=O)c1c(O)c3c(c(O)c1C2=O)C[C@@](O)(C(=O)CO)C[C@@H]3O[C@H]1C[C@H](N)[C@H](O)[C@H](C)O1`
Ans. -0.46

Qu. Please supply the value of reported log10(minimal effective dose) for the item CN(Cc1cnc2nc(N)nc(N)c2n1)c1ccc(C(=O)N[C@@H](CCC(=O)O)C(=O)O)cc1 [METHOTREXATE]
Ans. 1.45

Qu. Recall and state the measured log10(minimal effective dose) for `COc1cccc2c1C(=O)c1c(O)c3c(c(O)c1C2=O)C[C@@](O)(C(C)=O)C[C@@H]3O[C@H]1C[C@H](N)[C@H](O)[C@H](C)O1` .
Ans. -0.28

Qu. Supply measured log10(minimal effective dose) of O=P1(N(CCCl)CCCl)NCCCO1 (stereo unspecified) [CYCLOPHOSPHAMIDE ANHYDROUS] in your reply.
Ans. 1.42

Qu. For `O=c1[nH]cc(F)c(=O)[nH]1` , write its log10(minimal effective dose).
Ans. 1.94

---

Experiment: Toxicity in […] assessed as maximum tolerated dose administered as single dose
Assay type: organism-based, P388
Conditions: mouse, in vivo, ip
Note to self: values exactly at 100 mg/kg are Fulfilled. So MTD at or above 100 mg/kg is Fulfilled, below is Not fulfilled.

Qu. Identify whether the reported MTD of the following compound is 100 mg/kg or greater: CN(Cc1cnc2nc(N)nc(N)c2n1)c1ccc(C(=O)N[C@@H](CCC(=O)O)C(=O)O)cc1 [METHOTREXATE]
Ans. Fulfilled

Qu. In plain terms: is recorded MTD at least 100 mg/kg for Cl.Cl.O=C1c2c(O)ccc(O)c2C(=O)c2c(NCCNCCO)ccc(NCCNCCO)c21 [MITOXANTRONE HYDROCHLORIDE] ?
Ans. Not fulfilled

Qu. Tell me whether MTD is at least 100 mg/kg here: `COc1cccc2c1C(=O)c1c(O)c3c(c(O)c1C2=O)C[C@@](O)(C(=O)CO)C[C@@H]3O[C@H]1C[C@H](N)[C@H](O)[C@H](C)O1`
Ans. Not fulfilled

Qu. Tell me whether MTD is at least 100 mg/kg here: O=P1(N(CCCl)CCCl)NCCCO1 (stereo unspecified) [CYCLOPHOSPHAMIDE ANHYDROUS]
Ans. Fulfilled

Qu. Is reported MTD greater than or equal to 100 mg/kg here: `O=c1[nH]cc(F)c(=O)[nH]1`
Ans. Fulfilled

Qu. # bool: MTD of `COc1cccc2c1C(=O)c1c(O)c3c(c(O)c1C2=O)C[C@@](O)(C(C)=O)C[C@@H]3O[C@H]1C[C@H](N)[C@H](O)[C@H](C)O1` >= 100 mg/kg
Ans. Not fulfilled
